meta.source: patent US9879043B1

molecular target: Sulfolobus solfataricus MAT (sMAT) (Saccharolobus solfataricus, UniProt Q980S9); type: biochemical; settings: 2 mM analog, 1 mM ATP, 5 μM sMAT, pH 8.0, 4 h at 65° C.; average of two assays
# Lookup of reported Percentage Turn-Over (sMAT) keyed by entry
A number alone suffices; assume %.

Consider the following illustrative entries.
molecule	tested_system	measured_quantity	units_label	observed_value
CCCSCC[C@H](N)C(=O)O [compound 8]	Sulfolobus solfataricus MAT (sMAT) (Saccharolobus solfataricus, UniProt Q980S9)	Percentage Turn-Over (sMAT)	%	44
C#CCSCC[C@H](N)C(=O)O [compound 4]	Sulfolobus solfataricus MAT (sMAT) (Saccharolobus solfataricus, UniProt Q980S9)	Percentage Turn-Over (sMAT)	%	36
C=C/C=C/CSCC[C@H](N)C(=O)O [compound 16]	Sulfolobus solfataricus MAT (sMAT) (Saccharolobus solfataricus, UniProt Q980S9)	Percentage Turn-Over (sMAT)	%	14
N#CCSCC[C@H](N)C(=O)O [compound 6]	Sulfolobus solfataricus MAT (sMAT) (Saccharolobus solfataricus, UniProt Q980S9)	Percentage Turn-Over (sMAT)	%	68
[N-]=[N+]=NC/C=C/CSCC[C@H](N)C(=O)O [compound 23]	Sulfolobus solfataricus MAT (sMAT) (Saccharolobus solfataricus, UniProt Q980S9)	Percentage Turn-Over (sMAT)	%	28

Okay, next one:
What measured Percentage Turn-Over (sMAT) goes with CC(C)CCSCC[C@H](N)C(=O)O [compound 18] ? 36

----------
molecular target: human MAT II catalytic alpha subunit alone (hMAT2A) (Homo sapiens); test: MAT assay, turnover of S/Se-Met analogs to S(Se)AM analogs (RP-HPLC end point); format: biochemical; settings: 2 mM Met analog, 1 mM ATP, 5 μM MAT, pH 8, 4 h, 37° C.; average of two assays
// Percentage Turn-over hMAT2A lookup, one value per entry
Numeric answer only, unit % assumed.

Looking for the measured Percentage Turn-over hMAT2A of CSCC[C@H](N)C(=O)O , can you help? 100

Recorded Percentage Turn-over hMAT2A of C=C(C)C[Se]CC[C@H](N)C(=O)O , please. 11

Please look up its Percentage Turn-over hMAT2A: N#CC[Se]CC[C@H](N)C(=O)O 23

// lookup Percentage Turn-over hMAT2A for CC[Se]CC[C@H](N)C(=O)O 53

What value of Percentage Turn-over hMAT2A has been recorded for this entry: C=CC[Se]CC[C@H](N)C(=O)O 42

Any idea what its Percentage Turn-over hMAT2A is? The compound is CCCC[Se]CC[C@H](N)C(=O)O 26

Endpoint output: Percentage Turn-over hMAT2A of C#CC[Se]CC[C@H](N)C(=O)O . Value? 44

----------
target: human MAT II catalytic alpha and regulatory beta subunit (hMAT2) (Homo sapiens, UniProt P31153); assay: MAT assay, turnover of S/Se-Met analogs to S(Se)AM analogs (RP-HPLC end point); format: biochemical; settings: 2 mM Met analog, 1 mM ATP, 5 μM MAT, pH 8, 4 h, 37° C.; average of two assays
Doc: threshold 20% (exclusive). Items with Percentage Turn-over hMAT2 beneath it return 1.0; others return 0.0.

Some solved cases for reference:
compound	label
NC/C=C/C[Se]CC[C@H](N)C(=O)O [compound 24-Se]	0.0
C#CCC[Se]CC[C@H](N)C(=O)O [compound 10-Se]	0.0
CC(C)CCSCC[C@H](N)C(=O)O [compound 18]	1.0
C=C(C)C[Se]CC[C@H](N)C(=O)O [compound 12-Se]	1.0
CC(C)=CC[Se]CC[C@H](N)C(=O)O [compound 19-Se]	1.0

Item CC(C)SCC[C@H](N)C(=O)O [compound 9] : Percentage Turn-over hMAT2 beneath 20%, strictly? 1.0

# TODO verify Percentage Turn-over hMAT2 < 20% strictly for this compound: CC[Se]CC[C@H](N)C(=O)O [compound 3-Se] 0.0

Quick check: does [N-]=[N+]=NCCSCC[C@H](N)C(=O)O [compound 17] have Percentage Turn-over hMAT2 under 20%? 0.0
